Where do these numbers come from? They come from patent US20240246954A1.

Recorded measurements of pIC50, one per entry
- system-under-test: Avi-KRAS G12D (1-169) GppNHp/RAF1 RBD-3×FLAG (52-151) (Homo sapiens, UniProt P01116, G12D)
- Construct: Avi-KRAS G12D (1-169) GppNHp
- Sequence (P01116 1-169 isoform P01116-2 G12D limits assumed): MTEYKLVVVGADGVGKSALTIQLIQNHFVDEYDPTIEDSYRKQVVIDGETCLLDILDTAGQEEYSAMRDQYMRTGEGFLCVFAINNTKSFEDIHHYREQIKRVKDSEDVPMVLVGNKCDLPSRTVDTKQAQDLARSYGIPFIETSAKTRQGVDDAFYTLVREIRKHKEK
- assay-overview: HTRF Raf1-KRAS G12D-GppNHp disruption assay
- applied-conditions: 1 h incubation
pIC50: −log10 of the molar value.

Below, 2 compounds whose answers are already recorded.
{"columns": ["compound", "system-under-test", "reported-property", "measured"],
 "data": [
  ["Nc1nc2c(-c3c(C(F)(F)F)cc4c(N5CCNCC5)nc(OCC56CCCN5CC(F)(F)C6)nc4c3F)ccc(F)c2s1 (stereo not drawn)", "Avi-KRAS G12D (1-169) GppNHp/RAF1 RBD-3×FLAG (52-151) (Homo sapiens, UniProt P01116, G12D)", "pIC50", "5.00 to 6.00"],
  ["N#Cc1cc2c(N3C[C@H]4CC[C@@H](C3)N4)nc(OC[C@@]34CCCN3C[C@H](F)C4)nc2c(F)c1-c1ccc(F)c2sc(N)c(C#N)c12", "Avi-KRAS G12D (1-169) GppNHp/RAF1 RBD-3×FLAG (52-151) (Homo sapiens, UniProt P01116, G12D)", "pIC50", "6.00 to 7.00"]
]}

Now look at this entry.
Input line: May I ask what pIC50 has been recorded for N#Cc1c(N)sc2c(F)ccc(-c3c(C(F)(F)F)cc4c(N5CC6CCC(C5)N6)nc(OCC5(CN6CCOCC6)CC5)nc4c3F)c12 ?
Output line: ≥ 7.00
